Target: UniProtKB P00533
Assay: Inhibition of epidermal growth factor receptor (EGFR) phosphorylation of the exogenous substrate poly(Glu6, Ala3,Tyr) (polyGAT)
Criterion: IC50 strictly under 2 µM. Met: y. Not met: n.

A selection of reference data follows.
N#C/C(=C\c1ccc(O)c(O)c1)C(=O)NCCCCCNC(=O)/C(C#N)=C/c1ccc(O)c(O)c1	y
N#C/C(=C\c1ccc2[nH]ccc2c1)C(=O)NCCCNC(=O)/C(C#N)=C/c1ccc2[nH]ccc2c1	n

Take the molecule N#C/C(=C\c1ccc(O)c(O)c1)C(=O)NC1CCCC[C@@H]1NC(=O)/C(C#N)=C/c1ccc(O)c(O)c1 (stereo partly drawn) and say whether its IC50 is less than 2 µM.
n

Does the reported IC50 of the following molecule sit strictly below 2 µM? N#C/C(=C\c1ccc(O)c(O)c1)S(=O)(=O)/C(C#N)=C/c1ccc(O)c(O)c1
y

For N#C/C(=C\c1ccc(O)c(O)c1)C(=O)NCc1cccc(CNC(=O)/C(C#N)=C/c2ccc(O)c(O)c2)c1 , is the recorded IC50 below the cut-off of 2 µM?
y

Below 2 µM on IC50? Entry N#C/C(=C\c1ccc(O)c(O)c1)C(=O)NCCN1CCN(C(=O)/C(C#N)=C/c2ccc(O)c(O)c2)CC1
n

Does the reported IC50 of the following molecule sit strictly below 2 µM? N#C/C(=C\c1ccc(O)c(O)c1)C(=O)NCCCCCCNC(=O)/C(C#N)=C/c1ccc(O)c(O)c1
y

Please state whether IC50 is below 2 µM for N#C/C(=C\c1ccc(O)c(O)c1)C(=O)NCC1CCCC(CNC(=O)/C(C#N)=C/c2ccc(O)c(O)c2)C1 (stereo not drawn)
y

---

The compounds listed here are annotated with their pIC50.
Target: UniProt P00533
Experiment: Inhibitory activity of compound against Epidermal growth factor receptor autophosphorylation
Please express pIC50 as -log10 of the molar concentration.

N#C/C(=C\c1cc(O)c(O)c(O)c1)C(=O)NCCCCNC(=O)/C(C#N)=C/c1cc(O)c(O)c(O)c1	4.68

I would be grateful if you could share the reported pIC50 for N#C/C(=C\c1ccc(O)c(O)c1)C(=O)NCCN1CCN(C(=O)/C(C#N)=C/c2ccc(O)c(O)c2)CC1 .
5.00

Give the measured pIC50 of N#C/C(=C\c1ccc(O)c(O)c1)C(=O)NCCCCNC(=O)/C(C#N)=C/c1ccc(O)c(O)c1 .
5.37

Bench note: what pIC50 did N#C/C(=C\c1ccc(O)c(O)c1)C(=O)N1CCN(C(=O)/C(C#N)=C/c2ccc(O)c(O)c2)CC1 show?
4.60

Give its pIC50 value. Item: N#C/C(=C\c1ccc(O)c(O)c1)C(=O)NCCCCCCNC(=O)/C(C#N)=C/c1ccc(O)c(O)c1
4.96

---

Target: Epidermal growth factor receptor (Homo sapiens)
Sequence (P00533 whole entry): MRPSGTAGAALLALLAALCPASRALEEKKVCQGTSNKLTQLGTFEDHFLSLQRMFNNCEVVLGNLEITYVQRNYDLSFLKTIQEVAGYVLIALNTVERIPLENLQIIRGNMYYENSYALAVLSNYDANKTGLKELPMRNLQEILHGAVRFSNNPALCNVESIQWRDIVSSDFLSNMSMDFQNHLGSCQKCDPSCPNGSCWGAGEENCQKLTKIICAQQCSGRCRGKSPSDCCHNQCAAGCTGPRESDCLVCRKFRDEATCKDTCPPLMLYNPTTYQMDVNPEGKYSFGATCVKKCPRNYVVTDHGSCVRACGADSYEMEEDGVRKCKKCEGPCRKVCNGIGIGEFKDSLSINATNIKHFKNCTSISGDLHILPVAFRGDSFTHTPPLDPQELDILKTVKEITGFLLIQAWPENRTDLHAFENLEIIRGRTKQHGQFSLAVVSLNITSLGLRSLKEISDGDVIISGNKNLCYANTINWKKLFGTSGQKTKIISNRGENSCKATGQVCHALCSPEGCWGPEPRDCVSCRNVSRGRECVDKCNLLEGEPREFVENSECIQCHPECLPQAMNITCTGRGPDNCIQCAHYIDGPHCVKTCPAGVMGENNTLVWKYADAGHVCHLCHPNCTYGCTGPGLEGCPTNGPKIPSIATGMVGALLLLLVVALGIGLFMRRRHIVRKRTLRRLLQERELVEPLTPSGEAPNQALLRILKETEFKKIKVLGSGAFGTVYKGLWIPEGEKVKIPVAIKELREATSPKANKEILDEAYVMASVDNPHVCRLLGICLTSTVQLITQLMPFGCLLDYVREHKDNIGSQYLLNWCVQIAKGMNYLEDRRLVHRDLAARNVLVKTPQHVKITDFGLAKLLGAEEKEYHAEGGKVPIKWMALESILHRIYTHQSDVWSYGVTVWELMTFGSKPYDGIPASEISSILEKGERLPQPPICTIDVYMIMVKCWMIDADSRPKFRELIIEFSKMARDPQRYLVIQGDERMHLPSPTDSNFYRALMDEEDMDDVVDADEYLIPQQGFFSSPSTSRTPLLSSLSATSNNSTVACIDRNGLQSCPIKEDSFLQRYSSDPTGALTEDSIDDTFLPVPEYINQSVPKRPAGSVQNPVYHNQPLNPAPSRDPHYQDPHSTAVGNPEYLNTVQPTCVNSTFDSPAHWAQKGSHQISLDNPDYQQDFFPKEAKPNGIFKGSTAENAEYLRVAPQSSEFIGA
Assay: Inhibition of epidermal growth factor receptor (EGFR) phosphorylation of the exogenous substrate poly(Glu6, Ala3,Tyr) (polyGAT)
Here, each record is paired with measured IC50 data.
Expressed in nM, but write only the number.

N#C/C(=C\c1cc(O)c(O)c(Br)c1)S(=O)(=O)/C(C#N)=C/c1cc(O)c(O)c(Br)c1	850
N#C/C(=C\c1cc(O)c(O)c(Br)c1)C(=O)NCCCNC(=O)/C(C#N)=C/c1cc(O)c(O)c(Br)c1	340
N#C/C(=C\c1ccc(O)c(O)c1)C(=O)NCCCCNC(=O)/C(C#N)=C/c1ccc(O)c(O)c1	600
N#C/C(=C\c1ccc(O)c(O)c1)C(=O)NCCCCCCCCCCNC(=O)/C(C#N)=C/c1ccc(O)c(O)c1	1300

# IC50 lookup, item N#C/C(=C\c1ccc(O)c(O)c1)C(=O)N1CCN(C(=O)/C(C#N)=C/c2ccc(O)c(O)c2)CC1
4000

Give its IC50 value. Item: COc1cc(/C=C(\C#N)C(=O)NCCCCNC(=O)/C(C#N)=C/c2cc(OC)c(O)c([N+](=O)[O-])c2)cc([N+](=O)[O-])c1O
112000

# lookup: IC50 of N#C/C(=C\c1ccc(O)c(O)c1)C(=O)NCCNC(=O)/C(C#N)=C/c1ccc(O)c(O)c1
500

Which IC50 reading was recorded for the compound N#C/C(=C\c1cc(O)c(O)c(O)c1)C(=O)NCCCCNC(=O)/C(C#N)=C/c1cc(O)c(O)c(O)c1 ?
600
